System: BT-549 breast
protocol: NCI-60 one-dose screen, 48 h (100 = growth as untreated, 0 = no growth, -100 = all killed)
protocol conditions: 10 µM unless noted
About 83,000 compounds went through this panel and 20% of them were active in at least one assay; those are over-represented in the sample as a whole.
observable: growth (%)
// units = %; emit number, no label

INSERT INTO measurements (molecule, display_unit, measured_number) VALUES
  ('CN1CCN(CC#CCOC(=O)CNC(=O)[C@]23CCC(C)(C)C[C@H]2C2=CC[C@@H]4[C@@]5(C)CC[C@H](O)C(C)(C)[C@@H]5CC[C@@]4(C)[C@]2(C)CC3)CC1', '%', 88.9),
  ('CCCn1cc(/C=N\N=C2\C(=O)Nc3ccc(C)cc32)c2ccccc21', '%', 63.5),
  ('O=C(CCCCCCCCC(=O)Nc1cccc(C2=NCCN2)c1)Nc1cccc(C2=NCCN2)c1', '%', 92.2),
  ('O=C1NN(c2ccccc2)C(c2ccc3c(c2)OCO3)N2CCC[C@@H]12 (stereo partly drawn)', '%', 114);

Give a short answer stating reported growth for COC(=O)/C=C1\SC(=Nc2ccc(F)cc2)N(CCc2c[nH]c3ccccc23)C1=O .
88.4

Write down growth measured for item N#Cc1c(-c2ccc(F)cc2)nc(N/N=C/c2cccc(O)c2)nc1N1CCOCC1
93.4

Kindly indicate its recorded growth. Item: Cc1ccc(CS/C(=C\c2ccc([N+](=O)[O-])cc2)C(=O)c2ccc(F)cc2)cc1
75.8

Hello, please tell me recorded growth for this one: COC1=CC2C=C(C3N(c4ccccc4)NC(=O)[C@@H]4CCCN34)C(=O)NC2C=C1 (stereo partly drawn)
97.4

Quickly give me recorded growth for COc1cc(NC(=O)Nc2cnc(Nc3ccc(N4CCOCC4)cc3)nc2Oc2ccc(F)cc2)cc(OC)c1
98.2

Return growth for the following molecule: S=C(Nc1ccccc1)c1ccccn1
90.5

Complete the entry with growth for C=C(C)[C@@H]1CC[C@]2(C(=O)O)CC[C@]3(C)[C@H](CC[C@@H]4[C@@]5(C)C[C@@H](CC#Cc6ccc(Cl)cc6)C(=O)C(C)(C)[C@@H]5CC[C@]43C)[C@@H]12
46.5

###

Tested on: HOP-92 NSCLC
protocol: NCI-60 one-dose screen, 48 h
protocol conditions: 10 µM unless noted
Compounds without any hit were thinned out: in the full panel of roughly 83,000, 20% have a hit. Active and inactive are the calls of the source. The calls were made as follows: active = growth percent below 10; inactive = the rest.
Respond with a class label; see active, inactive

Use these answered entries as a reference point.
INSERT INTO results (molecule, assigned_label) VALUES
  ('COc1ccc2oc(=O)cc(-c3c(C#N)c(N)n4nc(N)c(C#N)c4c3C#N)c2c1', 'inactive'),
  ('Cc1[nH]c2ncnc(Oc3ccc(NC(=O)Nc4ccc(Cl)c(C(F)(F)F)c4)cc3)c2c1C', 'inactive'),
  ('O=C(Nc1cc(Br)ccn1)c1cc2cc(Nc3nc(-c4ccccc4)nc4ccccc34)ccc2oc1=O', 'inactive');

Next molecule, please.
Query: recorded result category for COC(=O)c1cc2c3c(cc(O)c2[nH]1)N(C(=O)C1Cc2cc(OC)c(OC)c(OC)c2N1)CC3CCl (centres undefined) in this test
active

###

Reported growth values for the following molecules.
System: TK-10 renal
protocol: NCI-60 one-dose screen, 48 h (100 = growth as untreated, 0 = no growth, -100 = all killed)
protocol conditions: 10 µM unless noted
The panel holds about 83,000 compounds, 20% with a hit somewhere; the sample as a whole holds those more often.
Write down the numeric answer in % and omit the unit.

Consider the reported growth for these molecules:
INSERT INTO measurements (molecule, display_unit, measured_number) VALUES
  ('N#Cc1c(-c2ccc(F)cc2)nc(N/N=C/c2c[nH]c3ccccc23)nc1N1CCOCC1', '%', 89.9),
  ('CCSc1nc(Cl)c(C#N)c(-c2ccc(F)cc2)n1', '%', 101);

Output measured growth for this item: CCC[S@](=O)c1ccc2nc(NC(=O)OC)[nH]c2c1
91.7

Output measured growth for this item: CN1C(=O)c2cc(Cl)nc3c(NC(=O)c4cccc(Cl)c4)c(Cl)c(NC(=O)c4cccc(Cl)c4)c1c23
39.9

Please list growth recorded for the molecule C=CCn1c(SCC(=O)Nc2ccc(C(=O)/C=C/c3cc(OC)c(OC)c(OC)c3)cc2)nnc1-c1ccc(Cl)cc1
35.9

Give the reported growth for this molecule. CN(CCC#N)C(=O)Nc1ccccc1
84.1

Data provenance is PubChem BioAssay (NCI).
